Source: the supplement of paper PMC10681739

Molecular target: ETS1 (UniProt P14921)
Sequence: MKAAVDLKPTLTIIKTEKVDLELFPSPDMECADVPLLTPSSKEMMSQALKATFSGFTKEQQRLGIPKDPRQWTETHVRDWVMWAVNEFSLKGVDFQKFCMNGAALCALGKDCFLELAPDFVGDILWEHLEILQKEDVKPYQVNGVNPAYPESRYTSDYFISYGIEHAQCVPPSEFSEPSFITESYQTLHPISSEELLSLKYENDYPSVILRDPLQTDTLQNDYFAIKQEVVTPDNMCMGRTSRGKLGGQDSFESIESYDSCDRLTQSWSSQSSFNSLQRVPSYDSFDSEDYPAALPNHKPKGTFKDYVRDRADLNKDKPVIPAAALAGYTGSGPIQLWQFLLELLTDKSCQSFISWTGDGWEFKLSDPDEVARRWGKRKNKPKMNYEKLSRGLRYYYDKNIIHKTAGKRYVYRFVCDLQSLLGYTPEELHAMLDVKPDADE
Experiment: ETS1 binding intensity (PBM fluorescence) in presence of RUNX1, normalised to ETS1-only experiment (arbitrary fluorescence units); higher = stronger binding
Conditions: ETS1 concentration 1 nM; RUNX1 concentration 25 nM
Class (by ETS1 binding intensity) -- b0 = under 600, b1 = from 600 up to 1000, b2 = 1000 and over

Some solved entries appear below for comparison.
TAAGTGCAGGAAACGGCTGTGTGGGTGTCAGTGATT :: b2
GAGGCCCAGGATGTGGCTGGAGGCCTGTGGTGGGAC :: b2
AAAGAACTTCCTGAGGTGCTTGAGGTTAGGCTATGG :: b0
GGCCGGGGGCAGGAAGCTGCGGCGCTGGCTCCCCCC :: b2
TCCCCTCTCCCCATCCGCCCGAGACCACAGCCACTC :: b0

Any idea which band CGTTTGCCTATCTTCCTCCCCACAGAAGCACTCCAT is in?
b0

Any idea which band GCTGTTTCCTGCTGATAAAAACACCCCACAACTTCA is in?
b0

Any idea which band AGGCAAACTACAGGAAGATCCTGCCCGCAACTTGGT is in?
b2

Any idea which band CTGTCCCTAGCAGGATGTGGTTTGCACATTGCTGCT is in?
b2

Any idea which band CTGGGGATGTGTGACACTCAGAGAAACCACAAGGTG is in?
b2

Any idea which band CTCACAACTCGCGTCCGGCGGAGACCACAATTCCCG is in?
b0

Any idea which band TGGCTGTGAGCTGCAGGATGTGGTCAGGAGAGGAAG is in?
b2

Any idea which band AGGCTGTGGCGGAAGTGGTCGCGTTACCGCTTGTTT is in?
b2
